# MBC per record follows
- Test system: S. mutans (ATCC 700610, UA159)
- TEST_SUMMARY: MIC and MBC by serial microdilution assays
- Assay type: cell-based, Streptococcus mutans
- APPLIED_CONDITIONS: unpolymerized monomer in BHI broth, 48 h, triplicate
PROPERTY_LABEL: MBC (µg/mL)

1) C=C(C)C(=O)OCC[N+](C)(C)CCCCCCCCCCCC.[Br-] [DMADDM, dimethylamino dodecyl methacrylate] = 12.21
2) C=C(C)C(=O)OCC[N+](C)(C)CCCCCC.[Br-] = 3130
3) CC(=O)O.CC(=O)O.NC(=N\CCCCCC/N=C(N)/N=C(\N)Nc1ccc(Cl)cc1)/N=C(\N)Nc1ccc(Cl)cc1 [CHX, Chlorhexidine diacetate, reference compound] = 3.91
4) C=C(C)C(=O)OCC[N+](C)(C)CCCCCCCCCCCCCCCC.[Br-] [DMAHDM, dimethylamino hexadecyl methacrylate] = 0.61
